# system-name: MCH receptor (Homo sapiens, UniProt Q99705)
# test-details: High throughput functional screening FLIPR/FDSS6000 (intracellular Ca2+ evoked by MCH)
# Assay type: cell-based
# measurement-parameters: FLIPR/FDSS, antagonist activity vs 50 nM MCH; class by percent of control at 10^−7 M or IC50; table after the classification; read-out: class
pIC50: −log10 of the molar value. Counter-ions that a name gives are not always drawn.
# key: entry, value: pIC50

The examples below pair each entry with its known result.
CN(C)c1ccnc(N[C@H]2CC[C@@H](NC(=O)c3cccnc3Oc3ccc(F)cc3)CC2)n1 [Example 3201, hydrochloride] : > 7.30
Cc1cc(N[C@H]2CC[C@@H](NC(=O)c3ccc(C#N)cc3)CC2)nc2ccccc12 [Example 3077, hydrochloride] : > 7.30
O=C(N[C@H]1CC[C@@H](Nc2ccc3ccccc3n2)CC1)c1cccnc1Cl [Example 3037, hydrochloride] : < 6.70

Q) Please report pIC50 for the following molecule: Cc1cc(N[C@H]2CC[C@@H](NC(=O)c3ccc(F)cc3F)CC2)nc2ccccc12 [Example 3163, hydrochloride]
A) > 7.30

Q) Please report pIC50 for the following molecule: Cc1cc(N(C)C)nc(N[C@H]2CC[C@@H](NC(=O)c3cc(F)cc(Cl)c3)CC2)n1 [Example 3384, hydrochloride]
A) > 7.30

Q) Please report pIC50 for the following molecule: CN(C)c1ccnc(N[C@H]2CC[C@@H](NC(=O)Cc3ccc(F)c(F)c3)CC2)n1 [Example 3204, hydrochloride]
A) 6.70 to 7.30

Q) Please report pIC50 for the following molecule: Cc1cnc(N[C@H]2CC[C@@H](NC(=O)c3cc(F)c(F)c(F)c3)CC2)nc1N(C)C [Example 3389, hydrochloride]
A) > 7.30

###

# system-name: MCH receptor (Homo sapiens, UniProt Q99705)
# test-details: High throughput functional screening FLIPR/FDSS6000 (intracellular Ca2+ evoked by MCH)
# Format: cell-based
# measurement-parameters: FLIPR/FDSS, antagonist activity vs 50 nM MCH; class by percent of control at 10^−7 M or IC50; table after the classification; read-out: class
Where a name gives a salt, the structure may show the parent alone.
property-measured: IC50

The examples below pair each entry with its known result.
O=C(O)c1cccc(C(=O)N[C@H]2CC[C@@H](Nc3ccc4ccccc4n3)CC2)c1 [Example 3150] : > 200 nM
O=C(N[C@H]1CC[C@@H](Nc2ccc3ccccc3n2)CC1)c1ccc(-c2ccc(Cl)cc2)o1 [Example 3044, hydrochloride] : 50 to 200 nM
Cc1cc(N[C@H]2CC[C@@H](NC(=O)c3cccc(Cl)c3)CC2)nc2ccccc12 [Example 3073, hydrochloride] : < 50 nM

Now look at this one.
Q) Please report IC50 for the following compound: Cn1cc([N+](=O)[O-])cc1C(=O)N[C@H]1CC[C@@H](Nc2ccc3ccccc3n2)CC1 [Example 3042, hydrochloride]
A) < 50 nM

###

# system-name: MCH receptor (Homo sapiens, UniProt Q99705)
# test-details: High throughput functional screening FLIPR/FDSS6000 (intracellular Ca2+ evoked by MCH)
# Type: cell-based
# measurement-parameters: FLIPR/FDSS, antagonist activity vs 50 nM MCH; class by percent of control at 10^−7 M or IC50; table after the classification; read-out: class
Structures can show the parent of a compound that is named as a salt.
# key: entry, value: IC50

O=C(NC[C@H]1CC[C@@H](Nc2ccc3ccccc3n2)CC1)c1ccc(F)c(F)c1 [Example 3068, hydrochloride] : 50 to 200 nM

Q) Please report IC50 for the following compound: Cc1cc(N[C@H]2CC[C@@H](NC(=O)c3ccc4nonc4c3)CC2)nc2ccccc12 [Example 3085, hydrochloride]
A) < 50 nM

Q) Please report IC50 for the following compound: Cc1cnc(N[C@H]2CC[C@@H](NC(=O)c3ccc(F)c(Cl)c3)CC2)nc1N [Example 3392, hydrochloride]
A) > 200 nM

Q) Please report IC50 for the following compound: CN(C)c1ccnc(N[C@H]2CC[C@@H](NC(=O)c3csc([N+](=O)[O-])c3)CC2)n1 [Example 3198, hydrochloride]
A) < 50 nM

###

# system-name: MCH receptor (Homo sapiens, UniProt Q99705)
# test-details: High throughput functional screening FLIPR/FDSS6000 (intracellular Ca2+ evoked by MCH)
# Type: cell-based
# measurement-parameters: FLIPR/FDSS, antagonist activity vs 50 nM MCH; class by percent of control at 10^−7 M or IC50; table after the classification; read-out: class
Counter-ions that a name gives are not always drawn.
# key: entry, value: IC50

The examples below pair each entry with its known result.
CN(C)c1ccnc(N[C@H]2CC[C@@H](NC(=O)c3cccnc3)CC2)n1 [Example 3209, dihydrochloride] : > 200 nM
O=C(N[C@H]1CC[C@@H](Nc2ccc3ccccc3n2)CC1)c1cccnc1Oc1ccc(F)cc1 [Example 3054, hydrochloride] : < 50 nM

Q) # lookup: MCH receptor (Homo sapiens, UniProt Q99705) IC50, key = Cc1cc(N[C@H]2CC[C@@H](NC(=O)c3cccnc3)CC2)nc2ccccc12 [Example 3182, hydrochloride]
A) > 200 nM

Q) # lookup: MCH receptor (Homo sapiens, UniProt Q99705) IC50, key = COc1cc(OC)nc(N[C@H]2CC[C@@H](NC(=O)c3cccnc3Oc3ccccc3)CC2)n1 [Example 3135, hydrochloride]
A) > 200 nM

###

# system-name: MCH receptor (Homo sapiens, UniProt Q99705)
# test-details: High throughput functional screening FLIPR/FDSS6000 (intracellular Ca2+ evoked by MCH)
# Assay type: cell-based
# measurement-parameters: FLIPR/FDSS, antagonist activity vs 50 nM MCH; class by percent of control at 10^−7 M or IC50; table after the classification; read-out: class
pIC50: −log10 of the molar value. Structures can show the parent of a compound that is named as a salt.
# key: entry, value: pIC50

The examples below pair each entry with its known result.
Cc1cc(N[C@H]2CC[C@@H](NC(=O)c3cc(F)c(F)c(F)c3)CC2)nc2ccccc12 [Example 3180, hydrochloride] : > 7.30
CN(C)c1nc(N[C@H]2CC[C@@H](NC(=O)c3ccc(F)c(Cl)c3)CC2)ncc1F [Example 3229, hydrochloride] : > 7.30
CNc1cc(N[C@H]2CC[C@@H](NCc3ccc(Br)cc3OC(F)(F)F)CC2)nc2ccccc12 [Example 1, dihydrochloride] : 6.70 to 7.30
Cc1cc(N[C@H]2CC[C@@H](NC(=O)c3cccnc3N)CC2)nc2ccccc12 [Example 3161, dihydrochloride] : 6.70 to 7.30
CN(C)c1cc(N[C@H]2CC[C@@H](CNC(=O)Nc3cccc(Cl)c3Cl)CC2)nc2ccccc12 [Example 3191, hydrochloride] : 6.70 to 7.30
Cc1cc(N[C@H]2CC[C@@H](NC(=O)c3cccnc3Oc3ccc(F)c(F)c3)CC2)nc2ccccc12 [Example 3091, hydrochloride] : > 7.30

Q) # lookup: MCH receptor (Homo sapiens, UniProt Q99705) pIC50, key = CN(C)c1nc(N[C@H]2CC[C@@H](CNC(=O)c3ccc(F)c(F)c3)CC2)nc2c1CCCC2 [Example 3195, hydrochloride]
A) 6.70 to 7.30

Q) # lookup: MCH receptor (Homo sapiens, UniProt Q99705) pIC50, key = CNc1nc(N[C@H]2CC[C@@H](CNCc3ccc(Br)cc3OC(F)(F)F)CC2)nc2c1CCCC2 [Example 11, dihydrochloride]
A) > 7.30

Q) # lookup: MCH receptor (Homo sapiens, UniProt Q99705) pIC50, key = Cc1cc(N[C@H]2CC[C@@H](NC(=O)c3ccc(Cl)c(Cl)c3)CC2)nc2ccccc12 [Example 3078, hydrochloride]
A) > 7.30

Q) # lookup: MCH receptor (Homo sapiens, UniProt Q99705) pIC50, key = CN(C)c1ccnc(N[C@H]2CC[C@@H](NC(=O)c3ccc(F)c(F)c3)CC2)n1 [Example 3197, hydrochloride]
A) 6.70 to 7.30

Q) # lookup: MCH receptor (Homo sapiens, UniProt Q99705) pIC50, key = CN(C)c1nc(N[C@H]2CC[C@@H](NC(=O)c3cccnc3Oc3ccccc3)CC2)ncc1-c1ccccc1 [Example 3136, hydrochloride]
A) < 6.70

Q) # lookup: MCH receptor (Homo sapiens, UniProt Q99705) pIC50, key = O=C(N[C@H]1CC[C@@H](Nc2ccc3ccccc3n2)CC1)c1cc(C(F)(F)F)cc(C(F)(F)F)c1 [Example 3148, hydrochloride]
A) < 6.70

Q) # lookup: MCH receptor (Homo sapiens, UniProt Q99705) pIC50, key = Cc1cccc(C(=O)N[C@H]2CC[C@@H](Nc3ccc4ccccc4n3)CC2)c1 [Example 3033, hydrochloride]
A) > 7.30

Q) # lookup: MCH receptor (Homo sapiens, UniProt Q99705) pIC50, key = O=C(N[C@H]1CC[C@@H](Nc2ccc3ccccc3n2)CC1)c1cccnc1Oc1ccccc1Br [Example 3048, hydrochloride]
A) > 7.30

Where do these numbers come from? They come from patent US20050197350A1.
